# Tested on: U2OS
# MEASUREMENT DESCRIPTION: Multiplex assay against U2OS
# Type: toxicity, cell-based
# ASSAY CONDITIONS: human, 48 h, 10 µM, compound concentration 10 uM, replicate 2
ENDPOINT LABEL: Population Healthy Nuclei (%)
Number first, unit second.

Field Population Healthy Nuclei (%) (system: U2OS) for entry Cc1ccc(S(=O)(=O)NC2c3ccccc3Oc3ccccc32)cc1 = 84%

Field Population Healthy Nuclei (%) (system: U2OS) for entry CC(C)C[C@H](NC(=O)[C@H](Cc1ccccc1)NC(=O)CNC(=O)CNC(=O)[C@@H](N)Cc1ccc(O)cc1)C(=O)O = 85%

Field Population Healthy Nuclei (%) (system: U2OS) for entry Cl.NC[C@@H]1O[C@H](C23CC4CC(CC(C4)C2)C3)Cc2c1ccc(O)c2O = 27%

Field Population Healthy Nuclei (%) (system: U2OS) for entry CN1C(=O)[C@@H](NC(=O)c2cc3ccccc3[nH]2)N=C(c2ccccc2)c2ccccc21 [DEVAZEPIDE] = 50%

###

# System: Fibroblast
# MEASUREMENT DESCRIPTION: Multiplex assay against human fibroblast
# Type: toxicity, cell-based
# ASSAY CONDITIONS: 24 h, 10 µM, compound concentration 10 uM, replicate 1
The following molecules are shown together with reported Population Tubulin-Different-Phenotype (%) values.
Just the number please, in %, no unit attached.

1. Cl.Cn1c2c(c3ccc(Cl)c(Cl)c31)C(C#N)C1(CCNCC1)NC2=O (centres undefined)
38
2. CC[C@@]1(O)C(=O)OCc2c1cc1n(c2=O)Cc2cc3ccccc3nc2-1 [CAMPTOTHECIN]
7
3. C[C@@H](Oc1cc(-n2cnc3ccc(CN4CCN(C)CC4)cc32)sc1C(N)=O)c1ccccc1C(F)(F)F [GSK-461364]
78
4. NC(=O)c1ccc2nc(-c3ccc(C4(N)CCC4)cc3)c(-c3ccccc3)n2n1 [BAY-1125976]
3
5. CC[C@H](Nc1ncnc2[nH]cnc12)c1nc2cccc(F)c2c(=O)n1-c1ccccc1 [IDELALISIB]
1

Just so you know, measured Population Tubulin-Different-Phenotype (%) for N#Cc1cccc(C(=O)Nc2cc(-c3ccccc3)nn2-c2ccccc2)c1 came out at 93

Just so you know, measured Population Tubulin-Different-Phenotype (%) for CN1C(=O)[C@@H](NC(=O)c2cc3ccccc3[nH]2)N=C(c2ccccc2)c2ccccc21 [DEVAZEPIDE] came out at 55

Just so you know, measured Population Tubulin-Different-Phenotype (%) for CC(C)[C@H](CO)Nc1nc(Nc2cccc(Cl)c2)c2ncn(C(C)C)c2n1 [PURVALANOLA] came out at 94

Just so you know, measured Population Tubulin-Different-Phenotype (%) for CC(/C=C1\SC(=S)N(CCCC(=O)Nc2ccc(C(=O)O)c(O)c2)C1=O)=C\c1ccccc1 came out at 44

###

# Test system: Fibroblast
# MEASUREMENT DESCRIPTION: Multiplex assay against human fibroblast
# Format: toxicity, cell-based
# ASSAY CONDITIONS: 12 h, 10 µM, compound concentration 10 uM, replicate 1
Label 1 when Population Fragmented Nuclei (%) is at or above 20%; otherwise label -1.

Answered cases to consult:
1) Cc1c(P(=S)(c2ccccc2)c2ccccc2)n2ccccc2[n+]1C/C=C/c1ccccc1.[Br-]
1
2) CCCc1cc(C)[nH]c(=O)c1CNC(=O)c1cc(-c2ccc(N3CCN(C(C)C)CC3)nc2)cc2c1cnn2C(C)C
1
3) N#Cc1cccc(C(=O)Nc2cc(-c3ccccc3)nn2-c2ccccc2)c1
-1
4) CC[C@@]1(O)C(=O)OCc2c1cc1n(c2=O)Cc2cc3ccccc3nc2-1
1
5) NC(=O)c1ccc2nc(-c3ccc(C4(N)CCC4)cc3)c(-c3ccccc3)n2n1
1
6) CC(Cc1ccc(O)c(O)c1)C(C)Cc1ccc(O)c(O)c1 (stereo not drawn) [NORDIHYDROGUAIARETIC ACID]
-1

Pending compound:
Quick check, Population Fragmented Nuclei (%) >= 20%? CN(c1cc(C(F)(F)F)nc(OCCC(=O)O)n1)c1cccc2c1CCC2
1
